- Measurement Notes: MTT cell viability assay (cytotoxicity) in H9c2 cardiomyocytes
- Format: cell-based, rat
- Condition Label: rat; H9c2 cardiomyocytes, 20 μM, 24 h, MTT, mean ± SD, n = 3
Property Name: viability at 24 h, 20 µM (%)
Give bare numbers, in %.

Previously resolved entries follow.
INSERT INTO results (compound, property_name, u, observed_value) VALUES
  ('CCCCCCCCCCCC1=C(O)C(=O)C=C(Nc2ccc(OC)cc2)C1=O [Compound 5b]', 'viability at 24 h, 20 µM', '%', 87.4),
  ('CCCCCCCCCCCC1=C(O)C(=O)c2c(nc3ccccc3c2-c2ccc(OC)c(OC)c2)C1=O [Compound 6j]', 'viability at 24 h, 20 µM', '%', 68.4),
  ('CCCCCCCCCCCC1=C(O)C(=O)C=C(O)C1=O [Compound 1, embelin]', 'viability at 24 h, 20 µM', '%', 8.3),
  ('CCCCCCCCCCCC1=C(O)C(=O)c2c(nc3ccccc3c2-c2ccc(F)cc2)C1=O [Compound 6e]', 'viability at 24 h, 20 µM', '%', 93.9),
  ('CCCCCCCCCCCC1=C(O)C(=O)c2c(nc3ccccc3c2-c2ccc(Cl)cc2)C1=O [Compound 6c]', 'viability at 24 h, 20 µM', '%', 74.3),
  ('CCCCCCCCCCCC1=C(O)C(=O)c2c(nc3cc(C)cc(C)c3c2-c2ccc([N+](=O)[O-])cc2)C1=O [Compound 6l]', 'viability at 24 h, 20 µM', '%', 55.9);

# return viability at 24 h, 20 µM for each item in the list
1. CCCCCCCCCCCC1=C(O)C(=O)C=C(Nc2cccc([N+](=O)[O-])c2)C1=O [Compound 5d]
2. CCCCCCCCCCCC1=C(O)C(=O)C=C(Nc2ccccc2)C1=O [Compound 5a]

57.5
83

====

Could you please report measured melting point for the items listed next?

Previously resolved entries follow.
INSERT INTO measurements (compound, observed_value) VALUES
  ('CCCCCCCCCCCC1=C(O)C(=O)C2=C(Nc3ccccc3C2c2cccc(F)c2)C1=O (stereo not shown)', '240 to 242 °C'),
  ('CCCCCCCCCCCC1=C(O)C(=O)C2=C(Nc3ccccc3C2c2ccc(OC)c(OC)c2)C1=O (stereo not shown)', '152 to 154 °C'),
  ('CCCCCCCCCCCC1=C(O)C(=O)C2=C(Nc3ccccc3C2c2ccsc2)C1=O (stereo not shown)', '190 to 192 °C');

Pending compound:
Dear colleague, I am looking for the recorded melting point of the following compound: CCCCCCCCCCCC1=C(O)C(=O)C2=C(Nc3ccc(Br)cc3C2c2ccc([N+](=O)[O-])cc2)C1=O (stereo not shown) 236 to 237 °C

====

Could you please report measured viability at 24 h, 20 µM for the items listed next?
- Measurement Notes: MTT cell viability assay (cytotoxicity) in H9c2 cardiomyocytes
- Type: cell-based, rat
- Condition Label: rat; H9c2 cardiomyocytes, 20 μM, 24 h, MTT, mean ± SD, n = 3
Answers are plain numbers, in %.

INSERT INTO results (substance_smiles, u, observed_value) VALUES
  ('CCCCCCCCCCCC1=C(O)C(=O)c2c(nc3ccccc3c2-c2ccc(C)c(C)c2)C1=O', '%', 92.6),
  ('CCCCCCCCCCCC1=C(O)C(=O)c2c(nc3ccccc3c2-c2ccccc2)C1=O', '%', 68.1),
  ('CCCCCCCCCCCC1=C(O)C(=O)c2c(nc3ccccc3c2-c2ccsc2)C1=O', '%', 71.1);

Pending compound:
Dear colleague, I am looking for the recorded viability at 24 h, 20 µM of the following compound: CCCCCCCCCCCC1=C(O)C(=O)c2c(nc3ccccc3c2-c2cccc(F)c2)C1=O 84.5
